# ASSAY_SYSTEM: WT CFTR (Homo sapiens)
# ASSAY_COMMENT: Inside-out patch clamp recording of macroscopic currents, WT CFTR
Consider the following compounds and their measured IC50 readings.
A complete answer gives the number followed by the unit.

C[C@H](COc1ccccc1)C(=O)n1ncc2ccc(C(N)=O)cc21 [Compound I1412]; 21 µM

Continue with the compound presented below.
I would be grateful if you could share the reported IC50 for C[C@H](COc1ccccc1)C(=O)n1nc(N)c2ccc(C(N)=O)cc21 [Compound I1422] .
41 µM

---

# ASSAY_SYSTEM: WT CFTR (Homo sapiens, UniProt P13569)
# Sequence (P13569 whole entry): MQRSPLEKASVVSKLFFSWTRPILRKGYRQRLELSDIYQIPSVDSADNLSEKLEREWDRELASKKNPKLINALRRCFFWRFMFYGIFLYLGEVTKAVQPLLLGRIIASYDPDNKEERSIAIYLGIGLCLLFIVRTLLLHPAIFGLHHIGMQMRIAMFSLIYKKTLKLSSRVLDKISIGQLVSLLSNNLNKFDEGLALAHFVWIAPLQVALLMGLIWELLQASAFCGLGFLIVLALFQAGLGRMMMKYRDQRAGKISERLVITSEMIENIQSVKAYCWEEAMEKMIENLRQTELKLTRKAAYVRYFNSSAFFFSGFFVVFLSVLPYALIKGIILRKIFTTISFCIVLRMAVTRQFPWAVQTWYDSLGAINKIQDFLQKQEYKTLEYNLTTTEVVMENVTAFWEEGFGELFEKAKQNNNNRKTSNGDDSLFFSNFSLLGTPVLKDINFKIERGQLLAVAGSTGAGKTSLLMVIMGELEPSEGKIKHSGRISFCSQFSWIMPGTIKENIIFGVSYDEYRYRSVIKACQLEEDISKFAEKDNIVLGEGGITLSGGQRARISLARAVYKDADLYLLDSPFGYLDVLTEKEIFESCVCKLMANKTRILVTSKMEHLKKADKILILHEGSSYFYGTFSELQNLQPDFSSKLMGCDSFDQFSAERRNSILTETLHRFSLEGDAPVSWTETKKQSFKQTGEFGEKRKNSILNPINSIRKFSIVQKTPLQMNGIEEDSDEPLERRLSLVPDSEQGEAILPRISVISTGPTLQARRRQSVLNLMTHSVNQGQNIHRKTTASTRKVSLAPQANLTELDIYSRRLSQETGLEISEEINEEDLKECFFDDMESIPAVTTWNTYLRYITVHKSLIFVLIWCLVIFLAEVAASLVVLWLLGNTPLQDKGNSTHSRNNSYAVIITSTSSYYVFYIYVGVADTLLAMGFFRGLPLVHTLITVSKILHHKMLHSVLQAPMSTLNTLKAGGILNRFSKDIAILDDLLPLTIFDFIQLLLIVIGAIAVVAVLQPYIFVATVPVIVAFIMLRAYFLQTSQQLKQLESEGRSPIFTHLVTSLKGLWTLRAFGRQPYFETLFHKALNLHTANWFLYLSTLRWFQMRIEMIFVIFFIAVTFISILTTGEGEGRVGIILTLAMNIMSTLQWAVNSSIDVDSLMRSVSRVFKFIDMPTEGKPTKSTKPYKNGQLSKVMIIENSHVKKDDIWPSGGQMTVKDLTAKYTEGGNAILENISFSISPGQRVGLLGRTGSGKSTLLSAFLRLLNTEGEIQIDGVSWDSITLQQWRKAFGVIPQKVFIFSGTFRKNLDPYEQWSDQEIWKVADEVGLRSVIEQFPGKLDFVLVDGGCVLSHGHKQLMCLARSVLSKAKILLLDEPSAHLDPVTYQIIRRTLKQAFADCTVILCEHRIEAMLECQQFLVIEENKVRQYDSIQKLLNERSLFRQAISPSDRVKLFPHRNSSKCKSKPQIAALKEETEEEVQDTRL
# ASSAY_COMMENT: Inside-out patch clamp recording of macroscopic currents, WT CFTR
# Type: biochemical
Consider the following compounds and their measured EC50 readings.
Enter your answer as a number in nM; do not include the unit.

C[C@@H](COc1ccccc1)C(=O)n1nc(N)c2ccc(F)cc21 [(S)-’853]; 2100

I would be grateful if you could share the reported EC50 for C[C@@H](COc1ccccc1)C(=O)n1nc(N)c2ccc(CO)cc21 [Compound I1408] .
93

I would be grateful if you could share the reported EC50 for C[C@@H](COc1ccc(F)cc1)C(=O)n1nc(N)c2ccc(F)cc21 [(S)-SX263] .
136
